subjectOfTest: Human complement C1s enzyme (Homo sapiens, UniProt P09871)
Sequence (P09871 438-688 limits assumed): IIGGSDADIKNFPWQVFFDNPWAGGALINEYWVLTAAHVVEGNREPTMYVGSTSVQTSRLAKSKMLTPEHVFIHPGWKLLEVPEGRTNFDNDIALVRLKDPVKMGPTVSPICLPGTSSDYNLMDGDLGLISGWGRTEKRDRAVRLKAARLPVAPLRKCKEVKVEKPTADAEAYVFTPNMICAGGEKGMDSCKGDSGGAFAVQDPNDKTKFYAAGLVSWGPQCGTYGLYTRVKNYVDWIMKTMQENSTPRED
Sequence (P09871 16-437 partner limits assumed): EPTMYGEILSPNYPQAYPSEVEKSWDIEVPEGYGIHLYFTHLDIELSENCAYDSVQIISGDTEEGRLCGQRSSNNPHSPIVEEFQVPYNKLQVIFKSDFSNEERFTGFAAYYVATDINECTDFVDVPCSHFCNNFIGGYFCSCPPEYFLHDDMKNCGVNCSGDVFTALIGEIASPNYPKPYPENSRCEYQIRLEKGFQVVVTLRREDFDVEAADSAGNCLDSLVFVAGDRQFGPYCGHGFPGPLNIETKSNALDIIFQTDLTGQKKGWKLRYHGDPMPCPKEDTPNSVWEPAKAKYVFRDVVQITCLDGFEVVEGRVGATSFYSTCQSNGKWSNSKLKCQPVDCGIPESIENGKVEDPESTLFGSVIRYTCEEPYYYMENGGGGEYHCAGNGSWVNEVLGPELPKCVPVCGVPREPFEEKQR
assayProtocol: Human C1s enzyme assay
Type: biochemical
conditionLabel: human complement C1s enzyme 1.16 nM, substrate Z-L-Lys-SBzl 100 μM, 5 min preincubation; read-out: IC50 (Stars), C1s Inhibiting Activity
pIC50: −log10 of the molar value.
propertyMeasured: pIC50

smilesString	pIC50
C[C@@]12C[C@@H]1N(C(=O)CNC(=O)c1ccc(Oc3ccccc3)cc1)[C@H](C(=O)NCc1cccc(Cl)c1Cl)C2	< 6.00
O=C(NCC(=O)N1CC2(C[C@H]1C(=O)NCc1cc3cnccc3[nH]1)OCCO2)c1ccc2c(c1)Oc1ccccc1S2	> 7.00
O=C(NCC(=O)N1C[C@H](OC(F)F)C[C@H]1C(=O)NCc1cc2cnccc2[nH]1)c1cc(-c2ccc(Cl)cc2)cs1	> 7.00
C[C@@]12C[C@@H]1N(C(=O)CNC(=O)CCCOc1ccccc1)[C@H](C(=O)NCc1cc3cnccc3[nH]1)C2	> 7.00
C[C@@]12C[C@@H]1N(C(=O)CNC(=O)c1ccc(Oc3ccccc3)cc1)[C@H](C(=O)NCc1cc3c(s1)C(N)=NCC3)C2	< 6.00

For the compound C[C@@H](NC(=O)[C@@H]1C[C@]2(C)C[C@@H]2N1C(=O)CNC(=O)CCCOc1ccccc1)c1cc2cnccc2[nH]1 , give its measured pIC50 value.
6.00 to 7.00

For the compound Nc1nc(=O)oc2cc(CNC(=O)[C@@H]3C[C@@H](OC(F)F)CN3C(=O)CNC(=O)c3ccc4c(c3)Oc3ccccc3S4)ccc12 , give its measured pIC50 value.
< 6.00

For the compound O=C(NCC(=O)N1CC2(C[C@H]1C(=O)NCc1cc3cc(Br)ccc3[nH]1)OCCO2)c1ccc2c(c1)Oc1ccccc1S2 , give its measured pIC50 value.
< 6.00

For the compound O=C(NCC(=O)N1CC2(C[C@H]1C(=O)NCc1nc3cnccc3o1)OCCO2)c1ccc2c(c1)Oc1ccccc1S2 , give its measured pIC50 value.
< 6.00

For the compound C[C@@H](NC(=O)[C@@H]1C[C@@H](c2ccccc2)CN1C(=O)CNC(=O)c1ccc2c(c1)Oc1ccccc1S2)c1cc2cnccc2[nH]1 , give its measured pIC50 value.
> 7.00

For the compound O=C(NCC(=O)N1C[C@H](OC(F)F)C[C@H]1C(=O)NCc1ccc2[nH]ncc2c1)c1ccc2c(c1)Oc1ccccc1S2 , give its measured pIC50 value.
< 6.00

For the compound CCc1ccc(Oc2cc(F)cc(C(=O)NCC(=O)N3[C@H]4C[C@@]4(C)C[C@H]3C(=O)NCc3cc4cnccc4[nH]3)c2)cc1 , give its measured pIC50 value.
> 7.00

For the compound O=C(NCC(=O)N1C[C@H](OC(F)F)C[C@H]1C(=O)N[C@@H](CO)c1cc2cnccc2[nH]1)c1ccc2c(c1)-c1ccccc1C2(F)F , give its measured pIC50 value.
< 6.00

For the compound C[C@@H](NC(=O)[C@@H]1CC2(CN1C(=O)CN1Cc3ccc(-c4ccc(F)cc4F)cc3C1=O)OCCO2)c1cc2cnccc2[nH]1 , give its measured pIC50 value.
> 7.00

For the compound O=C(NCC(=O)N1C[C@H](OC(F)F)C[C@H]1C(=O)NCc1cc2cnccn2c1)c1cccc(Oc2ccccc2)c1 , give its measured pIC50 value.
> 7.00

For the compound Cc1ccc(-c2cnc(C(=O)NCC(=O)N3CC4(C[C@H]3C(=O)N[C@H](C)c3cc5cnccc5[nH]3)OCCO4)c(F)c2)cc1 , give its measured pIC50 value.
< 6.00

For the compound CCc1ccc(Oc2cc(F)cc(C(=O)NCC(=O)N3C[C@H](OC(F)F)C[C@H]3C(=O)NCc3cc4cnccc4[nH]3)c2)cc1 , give its measured pIC50 value.
> 7.00

For the compound O=C(NCC(=O)N1C[C@H](OC(F)F)C[C@H]1C(=O)NCc1cc2cnccc2[nH]1)c1cccc(Oc2ccc(F)cc2)c1 , give its measured pIC50 value.
> 7.00

For the compound Cc1cc(C(=O)NCC(=O)N2C[C@H](OC(F)F)C[C@H]2C(=O)N[C@H](C)c2cc3cnccc3[nH]2)ccc1Oc1ccc(F)cc1 , give its measured pIC50 value.
> 7.00

For the compound C[C@@H](NC(=O)[C@@H]1C[C@H](c2ncco2)CN1C(=O)CNC(=O)c1ccc2c(c1)Oc1ccccc1S2)c1cc2cnccc2[nH]1 , give its measured pIC50 value.
> 7.00

For the compound O=C(NCC(=O)N1C[C@H](OC(F)F)C[C@H]1C(=O)NCc1ccc2ocnc2c1)c1ccc2c(c1)Oc1ccccc1S2 , give its measured pIC50 value.
< 6.00

For the compound C[C@@]12C[C@@H]1N(C(=O)CNC(=O)c1ccc3c(c1)Oc1ccccc1S3)[C@H](C(=O)NCc1cccc(B(O)O)c1)C2 , give its measured pIC50 value.
< 6.00

For the compound O=C(NCC(=O)N1CC2(C[C@H]1C(=O)NCc1cc3cnccc3s1)OCCO2)c1cccc(Oc2ccccc2)c1 , give its measured pIC50 value.
> 7.00

For the compound CS(=O)(=O)[C@@H]1C[C@@H](C(=O)NCc2cc3cnccc3[nH]2)N(C(=O)CNC(=O)c2ccc3c(c2)-c2ccccc2C3(F)F)C1 , give its measured pIC50 value.
> 7.00

For the compound COC[C@H]1C[C@@H](C(=O)N[C@H](C)c2cc3cnccc3[nH]2)N(C(=O)CNC(=O)c2ccc3c(c2)Oc2ccccc2S3)C1 , give its measured pIC50 value.
> 7.00

Attribution: patent US20260062443A1
